tested on: Geotrichum candidum; assay: Ratio of compound to grisofulvin activity against Geotrichum candidum at 5 mg/ml after 24 to 48 hrs by agar diffusion technique; format: functional
quantity: Ratio
One number for each entry.

Sample answers from the record:
CC(=N\NC(=O)c1oc2ccccc2c1C)/C(=N/Nc1ccc([N+](=O)[O-])cc1)NO = 0
CC(=N\NC(=O)c1oc2ccccc2c1C)/C(=N/Nc1ccc([N+](=O)[O-])cc1)N1CCCCC1 = 1.2
CC(=N\NC(=O)c1oc2ccccc2c1C)/C(Cl)=N/Nc1ccc(C)cc1 = 0
C/C=N/NC(=O)c1oc2ccccc2c1C = 0
CC1(C)S[C@@H]2[C@H](NC(=O)[C@H](N)c3ccc(O)cc3)C(=O)N2[C@H]1C(=O)O = 1

Okay, next one:
## Task Give recorded Ratio. `CC(=N\NC(=O)c1oc2ccccc2c1C)/C(Cl)=N/Nc1ccc(Br)cc1`
## Result 0
